Target: T1, human neuropeptide Y2 receptor (human, UniProt P49146 1-381)
T1 sequence (looked up): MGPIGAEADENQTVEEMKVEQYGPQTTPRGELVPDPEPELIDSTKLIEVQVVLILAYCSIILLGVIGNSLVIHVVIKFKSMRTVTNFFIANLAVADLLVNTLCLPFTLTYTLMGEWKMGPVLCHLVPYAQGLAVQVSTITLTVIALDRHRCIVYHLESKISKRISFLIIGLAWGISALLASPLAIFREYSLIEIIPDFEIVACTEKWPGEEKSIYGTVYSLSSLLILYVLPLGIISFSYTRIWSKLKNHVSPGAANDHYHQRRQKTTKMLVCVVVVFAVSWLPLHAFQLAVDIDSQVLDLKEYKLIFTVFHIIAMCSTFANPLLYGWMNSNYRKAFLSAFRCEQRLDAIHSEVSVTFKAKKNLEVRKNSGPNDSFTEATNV
Assay: cell-based or functional assay
Starred links: 1 amine or outer side, 2 acyl side, 3 side chain; linkers in the order of their positions; H or OH if unused. Non-standard residues stand in square brackets, D forms with d. Groups on a side chain read outwards from the residue. No end group written: not given here. *: point of attachment. C20 diacid = O=C(O)CCCCCCCCCCCCCCCCCCC(=O)*; C18 diacid = O=C(O)CCCCCCCCCCCCCCCCC(=O)*; γGlu = O=C(O)[C@H](CCC(=O)[*:2])N[*:1]; AEEA = NCCOCCOCC(=O)O; Aib = CC(C)(N)C(=O)O
binders and their reported EC50 hNPY2R 100% hP (CreLuc)
Reply numerically in nM, unit not repeated.

binder="Y[Aib]EGTFTSDYSI[Aib]LEKQAQ[Aib]AFVQWLIK([AEEA-AEEA-γGlu-γGlu-γGlu-γGlu-C20 diacid])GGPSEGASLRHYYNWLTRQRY-NH2 (also: TFA salt) [Compound 269]" measured=32.5
binder="Y[Aib]EGTFTSDYSI[Aib]LEKQAQ[Aib]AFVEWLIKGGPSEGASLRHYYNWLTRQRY-NH2 (not fully specified (residue 28); also: TFA salt) [Compound 286]" measured=43.4
binder="Y[Aib]EGTFTSDYSI[Aib]LEKQAQ[Aib]EFVEWLIK([γGlu-γGlu-γGlu-γGlu-C18 diacid])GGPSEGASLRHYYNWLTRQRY-NH2 (also: TFA salt) [Compound 276]" measured=73.7

Now, please, on to the next binder.
// EC50 hNPY2R 100% hP (CreLuc) lookup, key: Y[Aib]EGTFTSDYSI[Aib]LEKQAQ[Aib]AFVQWLIK([Glu-Glu-Glu-Glu-Glu-Glu-C18 diacid])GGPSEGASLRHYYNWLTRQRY-NH2 (also: TFA salt) [Compound 264]
81.2
